TESTED_ON: CLK1 (human) (UniProt P49759)
Sequence (P49759 whole entry, looked up): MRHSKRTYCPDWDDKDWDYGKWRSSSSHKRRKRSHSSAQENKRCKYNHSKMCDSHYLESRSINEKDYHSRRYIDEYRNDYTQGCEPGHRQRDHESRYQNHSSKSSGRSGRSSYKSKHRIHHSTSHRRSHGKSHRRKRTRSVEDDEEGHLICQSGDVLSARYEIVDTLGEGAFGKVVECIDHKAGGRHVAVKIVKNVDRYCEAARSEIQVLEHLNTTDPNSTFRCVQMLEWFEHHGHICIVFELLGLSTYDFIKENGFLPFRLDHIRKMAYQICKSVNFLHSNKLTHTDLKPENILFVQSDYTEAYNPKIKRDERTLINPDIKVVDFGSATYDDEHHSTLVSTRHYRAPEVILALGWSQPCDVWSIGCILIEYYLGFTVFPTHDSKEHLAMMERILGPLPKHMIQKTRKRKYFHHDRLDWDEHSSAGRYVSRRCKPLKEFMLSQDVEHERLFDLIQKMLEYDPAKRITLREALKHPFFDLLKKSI
TEST: KINOMEscan competition binding
SETUP_CONDITIONS: compound 10.0 µM
ENDPOINT_NAME: kinase still bound, per cent of control (%)
Your answer is read as %, so omit the unit and give the number.

>  <CHEMICAL_STRUCTURE>
COc1cc2ncnc(-n3nc(-c4ccccn4)nc3N)c2cc1OC

>  <RESULT_UNITS>
%

>  <kinase still bound, per cent of control>
0.6

$$$$

Recorded kinase still bound, per cent of control for C[C@@H](Oc1cc(-c2cnn(C3CCNCC3)c2)cnc1N)c1c(Cl)ccc(F)c1Cl on CLK1 (human) (UniProt P49759) was 84

Readout kinase still bound, per cent of control for O=C(Nc1cccc(Nc2ncc(Br)c(NCCc3cnc[nH]3)n2)c1)N1CCCC1 , test system CLK1 (human) (UniProt P49759), was 13

* * *

TESTED_ON: UniProt:Q59H18
Sequence (Q59H18 whole entry, looked up): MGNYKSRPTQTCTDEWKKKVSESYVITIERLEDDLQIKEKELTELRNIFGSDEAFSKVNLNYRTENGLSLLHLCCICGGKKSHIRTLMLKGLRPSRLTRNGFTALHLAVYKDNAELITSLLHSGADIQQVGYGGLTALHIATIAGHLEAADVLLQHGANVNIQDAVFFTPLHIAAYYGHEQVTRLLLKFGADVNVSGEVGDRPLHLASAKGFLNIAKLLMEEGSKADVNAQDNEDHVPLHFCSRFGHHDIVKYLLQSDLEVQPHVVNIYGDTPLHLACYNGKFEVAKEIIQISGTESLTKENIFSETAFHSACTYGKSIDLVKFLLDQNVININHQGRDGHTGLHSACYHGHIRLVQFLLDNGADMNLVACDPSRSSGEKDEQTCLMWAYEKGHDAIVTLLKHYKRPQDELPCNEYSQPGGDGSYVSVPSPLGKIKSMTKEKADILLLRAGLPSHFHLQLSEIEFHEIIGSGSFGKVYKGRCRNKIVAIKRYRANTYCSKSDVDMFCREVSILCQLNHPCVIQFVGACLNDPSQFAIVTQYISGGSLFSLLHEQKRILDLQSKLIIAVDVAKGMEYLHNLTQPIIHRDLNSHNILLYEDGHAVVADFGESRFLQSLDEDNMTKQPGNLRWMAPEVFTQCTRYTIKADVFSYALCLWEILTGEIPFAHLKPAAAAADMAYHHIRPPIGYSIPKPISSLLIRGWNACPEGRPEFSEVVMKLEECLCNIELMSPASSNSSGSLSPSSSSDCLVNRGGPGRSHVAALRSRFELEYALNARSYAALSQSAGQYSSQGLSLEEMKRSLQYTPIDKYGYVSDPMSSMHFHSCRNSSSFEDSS
TEST: KINOMEscan competition binding
SETUP_CONDITIONS: compound 10.0 µM
Measured kinase still bound, per cent of control accompanies every entry in the list below.
Form entry: value (%) — number only.

Reading of kinase still bound, per cent of control for CCN(CC)CCCCNc1ncc2c(n1)N(C)C(=O)N(c1c(Cl)c(OC)cc(OC)c1Cl)C2 with UniProt:Q59H18: 100

The reported kinase still bound, per cent of control value, UniProt:Q59H18, for O=c1cc(N2CCOCC2)oc2c(-c3cccc4c3sc3ccccc34)cccc12 reads 86

// kinase still bound, per cent of control (UniProt:Q59H18) for C=CC(=O)Nc1cc(-n2c(=O)ccc3cnc4ccc(-c5cn[nH]c5)cc4c32)ccc1C = 100

COc1cc(C(=O)N2CCC(N3CCN(C)CC3)CC2)ccc1Nc1ncc2c(n1)N(C)c1ccccc1C(=O)N2C tested on UniProt:Q59H18 gave kinase still bound, per cent of control: 100

Item COc1cc2ncn(-c3cc(OCc4ccccc4C(F)(F)F)c(C(N)=O)s3)c2cc1OC ; assay system UniProt:Q59H18; kinase still bound, per cent of control reported as 81

* * *

TESTED_ON: CAMK2D (human) (UniProt Q13557)
Sequence (Q13557 whole entry, looked up): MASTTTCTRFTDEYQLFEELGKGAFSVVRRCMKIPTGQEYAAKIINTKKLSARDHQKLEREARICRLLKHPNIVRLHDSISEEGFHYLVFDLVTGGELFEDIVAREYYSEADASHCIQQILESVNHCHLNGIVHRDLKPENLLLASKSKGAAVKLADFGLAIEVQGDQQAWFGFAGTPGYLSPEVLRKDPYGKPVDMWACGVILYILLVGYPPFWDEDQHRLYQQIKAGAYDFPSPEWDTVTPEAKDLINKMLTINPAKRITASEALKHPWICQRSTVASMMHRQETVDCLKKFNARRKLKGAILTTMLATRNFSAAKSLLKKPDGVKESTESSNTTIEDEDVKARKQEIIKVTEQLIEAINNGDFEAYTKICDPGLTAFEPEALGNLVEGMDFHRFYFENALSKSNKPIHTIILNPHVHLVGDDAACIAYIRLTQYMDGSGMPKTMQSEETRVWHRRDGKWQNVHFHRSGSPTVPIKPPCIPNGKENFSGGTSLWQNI
TEST: KINOMEscan competition binding
SETUP_CONDITIONS: compound 10.0 µM
ENDPOINT_NAME: kinase still bound, per cent of control (%)
Value expressed in %; do not type the unit.

Take a look at these entries with their results.
>  <CHEMICAL_STRUCTURE>
CCN(CC)CCCCNc1ncc2c(n1)N(C)C(=O)N(c1c(Cl)c(OC)cc(OC)c1Cl)C2

>  <ENDPOINT_NAME>
kinase still bound, per cent of control

>  <RESULT_UNITS>
%

>  <VALUE>
100

$$$$
>  <CHEMICAL_STRUCTURE>
COc1cc2ncn(-c3cc(OCc4ccccc4C(F)(F)F)c(C(N)=O)s3)c2cc1OC

>  <ENDPOINT_NAME>
kinase still bound, per cent of control

>  <RESULT_UNITS>
%

>  <VALUE>
75

$$$$
>  <CHEMICAL_STRUCTURE>
COc1cc(C(=O)N2CCC(N3CCN(C)CC3)CC2)ccc1Nc1ncc2c(n1)N(C)c1ccccc1C(=O)N2C

>  <ENDPOINT_NAME>
kinase still bound, per cent of control

>  <RESULT_UNITS>
%

>  <VALUE>
28

$$$$
>  <CHEMICAL_STRUCTURE>
CS(=O)(=O)N1CCN(Cc2cc3nc(-c4cccc5[nH]ncc45)nc(N4CCOCC4)c3s2)CC1

>  <ENDPOINT_NAME>
kinase still bound, per cent of control

>  <RESULT_UNITS>
%

>  <VALUE>
100

$$$$
>  <CHEMICAL_STRUCTURE>
COc1cc(N2CCN(C)CC2)ccc1Nc1ncc2c(n1)N(C)c1ccccc1C(=O)N2C

>  <ENDPOINT_NAME>
kinase still bound, per cent of control

>  <RESULT_UNITS>
%

>  <VALUE>
23

$$$$
>  <CHEMICAL_STRUCTURE>
NC(=O)Nc1cc(-c2cccc(F)c2)sc1C(=O)N[C@@H]1CCCNC1

>  <ENDPOINT_NAME>
kinase still bound, per cent of control

>  <RESULT_UNITS>
%

>  <VALUE>
6.7

$$$$

GET /value?item= Cc1n[nH]c2ccc(-c3cncc(OC[C@@H](N)Cc4c[nH]c5ccccc45)c3)cc12 &field=kinase still bound, per cent of control returns 2.5

Measured kinase still bound, per cent of control of CNC(=O)c1ccc(Nc2cc(Nc3ccccc3S(=O)(=O)C(C)C)c3cc[nH]c3n2)nc1 : 100

Entry COc1ccc(N(C(=O)Oc2c(C)cccc2C)c2ccnc(Nc3ccc(N4CCN(C)CC4)cc3)n2)c(OC)c1 , kinase still bound, per cent of control reported as 100

* * *

TESTED_ON: PAK3 (human) (UniProt O75914)
Sequence (O75914 whole entry, looked up): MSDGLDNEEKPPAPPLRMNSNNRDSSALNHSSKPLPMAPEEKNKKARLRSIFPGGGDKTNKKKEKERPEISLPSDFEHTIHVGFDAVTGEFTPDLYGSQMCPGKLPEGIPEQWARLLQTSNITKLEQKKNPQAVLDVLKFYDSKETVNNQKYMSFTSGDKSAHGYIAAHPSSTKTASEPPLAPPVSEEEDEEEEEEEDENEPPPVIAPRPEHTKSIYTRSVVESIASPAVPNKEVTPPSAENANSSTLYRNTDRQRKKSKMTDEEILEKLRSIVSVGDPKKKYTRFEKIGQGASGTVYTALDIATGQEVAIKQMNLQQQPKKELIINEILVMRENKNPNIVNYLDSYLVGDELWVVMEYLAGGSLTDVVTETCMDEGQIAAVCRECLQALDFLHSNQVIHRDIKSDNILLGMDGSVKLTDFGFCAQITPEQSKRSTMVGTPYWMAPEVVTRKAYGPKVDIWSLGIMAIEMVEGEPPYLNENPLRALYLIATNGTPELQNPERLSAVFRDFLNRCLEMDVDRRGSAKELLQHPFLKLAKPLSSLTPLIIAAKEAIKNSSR
TEST: KINOMEscan competition binding
SETUP_CONDITIONS: compound 10.0 µM
ENDPOINT_NAME: kinase still bound, per cent of control (%)
Dear colleague, please return just the value in %, with no unit written.

Below, 4 molecules whose answers are already recorded.
>  <CHEMICAL_STRUCTURE>
O=C1NC(=O)/C(=C/c2ccc3nccc(-c4ccncc4)c3c2)S1

>  <VALUE>
20

$$$$
>  <CHEMICAL_STRUCTURE>
COc1cc(C(=O)N2CCC(N3CCN(C)CC3)CC2)ccc1Nc1ncc2c(n1)N(C)c1ccccc1C(=O)N2C

>  <VALUE>
83

$$$$
>  <CHEMICAL_STRUCTURE>
CCN(CC)CCCCNc1ncc2cc(-c3cc(OC)cc(OC)c3)c(NC(=O)NC(C)(C)C)nc2n1

>  <VALUE>
100

$$$$
>  <CHEMICAL_STRUCTURE>
CCN(CC)CCCCNc1ncc2c(n1)N(C)C(=O)N(c1c(Cl)c(OC)cc(OC)c1Cl)C2

>  <VALUE>
100

$$$$

// CS(=O)(=O)N1CCN(Cc2cc3nc(-c4cccc5[nH]ncc45)nc(N4CCOCC4)c3s2)CC1 : kinase still bound, per cent of control value = 100

Quick note, kinase still bound, per cent of control for CNC(=O)c1ccc(Nc2cc(Nc3ccccc3S(=O)(=O)C(C)C)c3cc[nH]c3n2)nc1 landed at 1

Lab book: kinase still bound, per cent of control of CCN1CCN(C(=O)Cc2ccc(Nc3ncc(F)c(Nc4ccc(C(=O)Nc5ccccc5Cl)cc4)n3)cc2)CC1 noted as 12

Given item C=CC(=O)Nc1cc(-n2c(=O)ccc3cnc4ccc(-c5cn[nH]c5)cc4c32)ccc1C , the value recorded as its kinase still bound, per cent of control is 81

# kinase still bound, per cent of control of O=C(Nc1cccc(Nc2ncc(Br)c(NCCc3cnc[nH]3)n2)c1)N1CCCC1 = 2.6

Given item NC(=O)Nc1cc(-c2cccc(F)c2)sc1C(=O)N[C@@H]1CCCNC1 , the value recorded as its kinase still bound, per cent of control is 0.5

Given item CNC(=O)c1cc(Oc2ccc(NC(=O)Nc3ccc(Cl)c(C(F)(F)F)c3)cc2)ccn1 , the value recorded as its kinase still bound, per cent of control is 40

Lab book: kinase still bound, per cent of control of CN(C)C/C=C/C(=O)Nc1ccc(C(=O)Nc2cccc(Nc3nccc(-c4cccnc4)n3)c2)cc1 noted as 100

kinase still bound, per cent of control measured on COCC(=O)NC/C=C/c1ccc2ncnc(Nc3ccc(Oc4ccc(C)nc4)c(C)c3)c2c1 = 70

Just so you know, measured kinase still bound, per cent of control for COc1cc(N2CCN(C)CC2)ccc1Nc1ncc2c(n1)N(C)c1ccccc1C(=O)N2C came out at 100

The recorded kinase still bound, per cent of control for entry N#CCNC(=O)c1ccc(-c2ccnc(Nc3ccc(N4CCOCC4)cc3)n2)cc1 equals 73

// sample COc1cc2ncnc(-n3nc(-c4ccccn4)nc3N)c2cc1OC , its kinase still bound, per cent of control was 12

Short answer for C=CC(=O)Nc1ccc(CN(C(=O)Nc2c(Cl)c(OC)cc(OC)c2Cl)c2cc(Nc3ccc(N4CCN(C)CC4)cc3)ncn2)cc1 : kinase still bound, per cent of control was 100

Per the record, COc1ccc(N(C(=O)Oc2c(C)cccc2C)c2ccnc(Nc3ccc(N4CCN(C)CC4)cc3)n2)c(OC)c1 has kinase still bound, per cent of control of 4

* * *

TESTED_ON: STK38 (human)
TEST: KINOMEscan competition binding
SETUP_CONDITIONS: compound 10.0 µM
ENDPOINT_NAME: kinase still bound, per cent of control (%)
Value expressed in %; do not type the unit.

Below are worked cases with known answers.
>  <CHEMICAL_STRUCTURE>
CCN1CCN(C(=O)Cc2ccc(Nc3ncc(F)c(Nc4ccc(C(=O)Nc5ccccc5Cl)cc4)n3)cc2)CC1

>  <RESULT_UNITS>
%

>  <kinase still bound, per cent of control>
70

$$$$
>  <CHEMICAL_STRUCTURE>
CN(C)C/C=C/C(=O)Nc1ccc(C(=O)Nc2cccc(Nc3nccc(-c4cccnc4)n3)c2)cc1

>  <RESULT_UNITS>
%

>  <kinase still bound, per cent of control>
90

$$$$
>  <CHEMICAL_STRUCTURE>
COCC(=O)NC/C=C/c1ccc2ncnc(Nc3ccc(Oc4ccc(C)nc4)c(C)c3)c2c1

>  <RESULT_UNITS>
%

>  <kinase still bound, per cent of control>
73

$$$$

Note to self: kinase still bound, per cent of control recorded for COc1cc(N2CCN(C)CC2)ccc1Nc1ncc2c(n1)N(C)c1ccccc1C(=O)N2C was 100
